# EXPERIMENT DESCRIPTION: Cytotoxicity against human Hep2 cells
# Type: cell-based, HEp-2

| COMPOUND | UNIT SPEC | CC50 |
| --- | --- | --- |
| CC(C)CCn1c(CN2C(=O)C(O)c3ccccc32)nc2ccccc21 (stereo not given) | µM | 3.31 |
| CC(C)CCn1c(CN2C(=O)C(Cc3ccccc3)C(=O)c3ccccc32)nc2ccccc21 (stereo not given) | µM | 20.1 |
| O=C(O)Cn1c(=O)c2ccccc2n(Cc2nc3ccccc3n2CCn2cnnn2)c1=O | µM | 213 |
| CC(C)CCn1c(CN2C(=O)CS(=O)(=O)c3ccccc32)nc2ccccc21 | µM | 63 |
| CC(C)CCn1c(CN2C(=O)Cc3ccccc32)nc2ccccc21 | µM | 8.58 |

###

Measured CC50 values are reported for all entries that follow.
# EXPERIMENT DESCRIPTION: Cytotoxicity against human Hep2 cells
# Format: cell-based, HEp-2

| STRUCTURE SMILES | COMPARISON SYMBOL | CC50 (µM) |
| --- | --- | --- |
| COc1cc(=O)n(Cc2nc3cc(CN)ccc3n2CCCCF)c2ccccc12 | = | 24.1 |
| CC(C)CCn1c(CN2C(=O)CSc3ccccc32)nc2ccccc21 | = | 6.78 |
| CC1(C)C(=O)N(Cc2nc3ccccc3n2CCCC#N)c2ccccc21 | > | 100 |
| CNCc1ccc2c(c1)nc(Cn1c(=O)n(C3CC3)c(=O)c3ccccc31)n2CCC(C)C | = | 17.9 |
| O=C(O)c1ccc(Cn2c(=O)c3ccccc3n(Cc3nc4ccccc4n3CCn3cnnn3)c2=O)cc1 | = | 54.7 |

###

# EXPERIMENT DESCRIPTION: Cytotoxicity against human Hep2 cells
# Format: cell-based, HEp-2
Reported CC50 maps to class as: low: < 30 µM; middle: ≥ 30 µM and < 50 µM; high: ≥ 50 µM

| COMPOUND | GROUP LABEL |
| --- | --- |
| O=c1c2ccccc2n(Cc2nc3ccccc3n2CCCCF)c(=O)n1C1CC1 | middle |
| NCc1ccc2c(c1)nc(Cn1c(=O)n(CC(F)(F)F)c(=O)c3ccccc31)n2CCCCF | low |
| CC(C)CCn1c(CN2C(=O)C(CC(=O)NCc3ccccc3)c3ccccc32)nc2ccccc21 (stereo unspecified) | low |
| O=c1ccc2ccccc2n1Cc1nc2ccccc2n1CCCCF | high |
| NCc1ccc2c(c1)nc(Cn1c(=O)n(CC(F)(F)F)c(=O)c3ccccc31)n2CCCCO | high |
| N#CCCCn1c(Cn2c(=O)n(C3CC3)c(=O)c3ccccc32)nc2ccccc21 | low |
| CC1(C)Sc2ccccc2N(Cc2nc3ccccc3n2CCCCF)C1=O | middle |
| N#CCCCCn1c(CN2C(=O)CS(=O)(=O)c3ccccc32)nc2ccccc21 | high |
| NCc1ccc2c(c1)nc(Cn1c(=O)n(C3CC3)c(=O)c3ccccc31)n2CCCCF | middle |
| CC(C)CCn1c(CN2C(=O)N(CC(=O)O)S(=O)(=O)c3ccccc32)nc2ccccc21 | high |
| CC(C)CCn1c(Cn2c(=O)n(Cc3ccc(C(=O)O)cc3)c(=O)c3ccccc32)nc2ccccc21 | low |
| N#CCCCCn1c(CN2C(=O)CCc3ccccc32)nc2ccccc21 | low |
| COc1cc(=O)n(Cc2nc3cc(CN)ccc3n2CCCCO)c2ccccc12 | high |
| O=c1c(O)cc2ccccc2n1Cc1nc2ccccc2n1CCCCF | low |
| COC(=O)c1ccc(Cn2c(=O)c3ccccc3n(Cc3nc4ccccc4n3CCC(C)C)c2=O)cc1 | low |
| CC(C)CCn1c(CN2C(=O)C(=O)c3ccccc32)nc2ccccc21 | high |
| CCc1cc2ccccc2n(Cc2nc3ccccc3n2CCCCF)c1=O | high |
| CC(C)CCn1c(Cn2c(=O)n(C3CC3)c(=O)c3ccccc32)nc2cc(C(=O)O)ccc21 | high |

Measured values drawn from ChEMBL document CHEMBL1149656 for this set.
